- Test system: SNB-19 CNS
- measurement_notes: NCI tumour cell line growth inhibition, 48 h
Each entry below lists one item and its recorded TGI value.

- compound: "O=C(/C=C(\\S/C=C(/c1ccccc1)N1CCn2c(C(=O)c3ccccc3)c(C(=O)c3ccccc3)c(C(=O)c3ccccc3)c21)C(=O)c1ccccc1)c1ccccc1"
  TGI: "> 10 µM"
- compound: "CCOP(=O)(OCC)C1CCCOC1=O (configuration not stated)"
  TGI: "> 100 µM"
- compound: "COc1ccc(-c2nc(-c3ccc(C)cc3)cn3ccnc23)cc1"
  TGI: "> 50 µM"
- compound: "c1ccc(C2OC3(CCC[C@H]4C[C@H]43)O[C@H]2c2ccccc2)cc1 (some centres not stated)"
  TGI: "> 100 µM"
- compound: "CCOC(=O)C(Cc1c[nH]c2cc([N+](=O)[O-])ccc12)NS(=O)(=O)c1ccc2ccccc2c1 (configuration not stated)"
  TGI: "> 100 µM"
- compound: "CSc1ccn(C2CC(F)C(CO)O2)c(=O)n1 (configuration not stated)"
  TGI: "> 100 µM"
- compound: "Nc1ncn2c(n1)nc1ccccc12"
  TGI: "> 100 µM"
- compound: "COCc1c(-c2cc3cc(C)cc(OC)c3s2)c2c(N)ncnn2c1CN1CCNC(=O)C1"
  TGI: "> 100 µM"
- compound: "CC(O)(P(=O)(O)O)P(=O)(O)OCC(O)CN1CCOCC1 (configuration not stated)"
  TGI: "> 100 µM"
- compound: "CCOC(=O)c1cc2c(cc1Cl)SC(=Nc1ccccc1)N(S(=O)(=O)c1ccc(Cl)cc1)S2(=O)=O"
  TGI: "> 100 µM"
- compound: "CCOC(=O)C(Cc1ccc(OC(=O)OC(C)(C)C)cc1)NC(=O)OC(C)(C)C (configuration not stated)"
  TGI: "> 100 µM"
- compound: "COc1cc2c3c(n(C)c(=O)c2cc1OC)-c1cc2c(cc1/C3=C\\CCCI)OCO2"
  TGI: "> 100 µM"
